# Tested on: HCC1569
# EXPERIMENT: cell number relative to DMSO (% of DMSO); higher = more cells (less growth inhibition / toxicity);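 also: TDF denotes transformed human dermal fibroblasts of mesenchymal origin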
# CONDITION DESCRIPTION: concentration: 10 µM; 24 h
PROPERTY NAME: cell number

INSERT INTO results (compound, property_name, meas_value) VALUES
  ('CCC1OC(=O)C(C)C(OC2CC(C)(OC)C(O)C(C)O2)C(C)C(OC2OC(C)CC(N(C)C)C2O)C(C)(O)CC(C)C(=NOCOCCOC)C(C)C(O)C1(C)O (stereo unspecified)', 'cell number', 106),
  ('Cc1cc(F)c(Nc2ncnc3cc(OCc4ccccc4)ccc23)cc1O.Cl', 'cell number', 91.6),
  ('Ic1cccc(CSc2nnc(-c3ccncc3)o2)c1', 'cell number', 93.5),
  ('O=C(Nc1cccc(C(=O)Nc2ccc(S(=O)(=O)[O-])c3cc(S(=O)(=O)[O-])cc(S(=O)(=O)[O-])c23)c1)Nc1cccc(C(=O)Nc2ccc(S(=O)(=O)[O-])c3cc(S(=O)(=O)[O-])cc(S(=O)(=O)[O-])c23)c1.[Na+].[Na+].[Na+].[Na+].[Na+].[Na+]', 'cell number', 102),
  ('CCCCCCCCCCCCCCCC(O)C(N)CO (racemic) [DL-Dihydrosphingosine]', 'cell number', 103),
  ('Cc1cc(Nc2ccc(NC(=O)c3ccc(Nc4ccnc5ccccc45)cc3)cc2)nc(N)n1', 'cell number', 13.5);

----------
# Tested on: TDF
# EXPERIMENT: cell number relative to DMSO (% of DMSO); higher = more cells (less growth inhibition / toxicity)
# CONDITION DESCRIPTION: concentration: 10 µM; 24 h
Below: a set of entries, each annotated with reported cell number.
PROPERTY NAME: cell number

INSERT INTO measurements (compound, measured_on, property_name, meas_value) VALUES
  ('CC(C)c1cc(C(C)C)c(CC(=O)NS(=O)(=O)Oc2c(C(C)C)cccc2C(C)C)c(C(C)C)c1', 'TDF', 'cell number', 103),
  ('CC(C=CC1(O)C(C)=CC(=O)CC1(C)C)=CC(=O)O (racemic)', 'TDF', 'cell number', 103),
  ('CNC1C(O)C(NC)C2OC3(O)C(=O)CC(C)OC3OC2C1O.Cl.Cl (stereo not drawn) [Spectinomycin.2HCl]', 'TDF', 'cell number', 106),
  ('Clc1ccc(C(Cn2ccnc2)OCc2ccsc2Cl)c(Cl)c1 (stereo not drawn)', 'TDF', 'cell number', 94.9),
  ('OC1C(O)C(O)C(O)C(O)C1O (stereo not drawn) [1,2,3,4,5,6-cyclohexanehexol]', 'TDF', 'cell number', 104),
  ('CCCCCC(=O)C=CC=CCCCCCCCC(=O)O', 'TDF', 'cell number', 97.6),
  ('O=c1oc2ccccc2c(O)c1Cc1c(O)c2ccccc2oc1=O', 'TDF', 'cell number', 94.5),
  ('Nc1c2c(nc3ccccc13)CCCC2O.O=C(O)C=CC(=O)O (stereo not drawn) [Hydroxytacrine maleate]', 'TDF', 'cell number', 103);

----------
# Tested on: HCC1569
# EXPERIMENT: cell number relative to DMSO (% of DMSO); higher = more cells (less growth inhibition / toxicity)
# CONDITION DESCRIPTION: concentration: 10 µM; 24 h
PROPERTY NAME: cell number

INSERT INTO results (molecule, measured_on, meas_value) VALUES
  ('O=c1cc(-c2ccc(O)cc2)oc2c(C3OC(CO)C(O)C(O)C3O)c(O)cc(O)c12 (stereo unspecified)', 'HCC1569', 101),
  ('CCOC(=O)C1=C(C)NC(C)=C(C(=O)OC)C1c1cccc([N+](=O)[O-])c1 (stereo unspecified)', 'HCC1569', 97.8),
  ('CS(=O)(=O)O.C[C@H](NCc1ccc(OCc2cccc(F)c2)cc1)C(N)=O', 'HCC1569', 99.7),
  ('O=C(Nc1ccc([N+](=O)[O-])cc1Cl)c1cc(Cl)ccc1O [Niclosamide]', 'HCC1569', 70),
  ('CN(C)CCCC1(c2ccc(F)cc2)OCc2cc(C#N)ccc21 (stereo unspecified)', 'HCC1569', 103),
  ('O=C1c2c(O)ccc(O)c2C(=O)c2c(NCCNCCO)ccc(NCCNCCO)c21', 'HCC1569', 53.2),
  ('CCCn1cnc2c1c(=O)n(CCCCC(C)=O)c(=O)n2C', 'HCC1569', 104),
  ('CCCCCCCCCCCCCCCCCC(=O)NCC(COP(=O)([O-])OCC[N+](C)(C)C)OCC (racemic)', 'HCC1569', 39),
  ('CN(C)CCn1cc(S(=O)(=O)c2cccc(F)c2)c2cccnc21', 'HCC1569', 99.5),
  ('O=C1N(c2ccccc2)c2ccccc2C1(Cc1ccncc1)Cc1ccncc1', 'HCC1569', 108),
  ('Cc1ccc(Nc2nccc(N(C)c3ccc4c(C)n(C)nc4c3)n2)cc1S(N)(=O)=O', 'HCC1569', 74.3),
  ('O=C1NC(=O)C(=Cc2cccc(C(F)(F)F)c2)S1', 'HCC1569', 102),
  ('CC(C)(S)[C@H](N)C(=O)O', 'HCC1569', 100),
  ('CC(C)(CN1C(=O)C(Cl)=C(Cl)C1=O)CN1C(=O)C(Cl)=C(Cl)C1=O', 'HCC1569', 86.4),
  ('COc1cc2nc(N3CCN(C(=O)C4CCCO4)CC3)nc(N)c2cc1OC.Cl (stereo unspecified) [Terazosin hydrochloride]', 'HCC1569', 100),
  ('CN1CCN(C2Cc3ccccc3Sc3ccc(Cl)cc32)CC1.O=C(O)C=CC(=O)O (stereo unspecified) [Clorotepine maleate]', 'HCC1569', 98.5);

----------
# System: TDF
# EXPERIMENT: cell number relative to DMSO (% of DMSO); higher = more cells (less growth inhibition / toxicity)
# CONDITION DESCRIPTION: concentration: 10 µM; 24 h
Below: a set of entries, each annotated with reported cell number.
PROPERTY NAME: cell number

INSERT INTO results (compound, meas_value) VALUES
  ('c1ccc2c(Cc3c[nH]c4ccccc34)c[nH]c2c1 [Diindolylmethane]', 97.9),
  ('CC1(C)NC(=O)N(c2ccc([N+](=O)[O-])c(C(F)(F)F)c2)C1=O [Nilutamide]', 91),
  ('COc1ccc(C2CC(=O)c3c(O)cc(O)cc3O2)cc1O (configuration not stated) [Hesperitine]', 101),
  ('CCCCOc1cc(CC2CNC(=O)N2)ccc1OC (configuration not stated)', 110),
  ('Nc1nnc(-c2cccc(Cl)c2Cl)c(N)n1 [Lamotrigine]', 105),
  ('O=C1C=C(CO)OCC1=O [5-hydroxy-2-(hydroxymethyl)-4H-pyran-4-one]', 94.6),
  ('NS(=O)(=O)c1ccc(-n2nc(C(F)(F)F)cc2-c2ccc(Cl)cc2)cc1', 104),
  ('COc1cc2ncnc(Nc3ccc(F)c(Cl)c3)c2cc1OCCCN1CCOCC1', 101),
  ('NS(=O)(=O)c1cccc2c1c([N+](=O)[O-])cc1nc([O-])c([O-])nc12.[Na+].[Na+] [NBQX disodium]', 103),
  ('CC1=NN(c2ccccc2)C(=O)C1', 111),
  ('NC(=O)c1cc[n+](CC2=C(C(=O)[O-])N3C(=O)C(NC(=O)C(c4ccccc4)S(=O)(=O)[O-])C3SC2)cc1.[Na+] (configuration not stated) [Cefsulodin sodium salt hydrate]', 104),
  ('CCCCCCCCC=CCCCCCCCCCCCCC(=O)O [14(E)-Tricosenoic acid]', 98.1),
  ('NC(=O)c1ccc(N(C(N)=O)c2c(F)cccc2F)nc1-c1ccc(F)cc1F', 104),
  ('CC(=O)OCC(=O)[C@@]1(O)CC[C@H]2[C@@H]3CCC4=CC(=O)C=C[C@]4(C)[C@H]3[C@@H](O)C[C@@]21C', 103),
  ('O=C(O)C=CC(=O)O.O=C(O)C=CC(=O)O.OCCOCCN1CCN(C2=Nc3ccccc3Sc3ccccc32)CC1 [Quetiapine Fumarate]', 97.8),
  ('COc1cc2c(c(OC)c1OC)-c1ccc(OC)c(=O)cc1C(NC=O)CC2 (configuration not stated) [N-Formyl-Deacetylcolchicine]', 92.9),
  ('CNCC(O)c1ccc(O)c(O)c1.O=C(O)C(O)C(O)C(=O)O [L-(+)-Epinephrine tartrate]', 97);

----------
Below: a set of entries, each annotated with reported cell number.
# Test system: HCC1569
# EXPERIMENT: cell number relative to DMSO (% of DMSO); higher = more cells (less growth inhibition / toxicity)
# CONDITION DESCRIPTION: concentration: 10 µM; 24 h
PROPERTY NAME: cell number

INSERT INTO results (molecule, meas_value) VALUES
  ('NC(=O)N1c2ccccc2C=Cc2ccccc21 [Carbamazepine]', 101),
  ('CC(=O)OC1C(=O)C2(C)C(O)CC3OCC3(OC(C)=O)C2C(OC(=O)c2ccccc2)C2(O)CC(OC(=O)C(O)C(NC(=O)c3ccccc3)c3ccccc3)C(C)=C1C2(C)C (stereo unspecified)', 60.2),
  ('O=C1NCCc2[nH]c(-c3ccncc3)cc21', 58.9),
  ('CCCCOC(=O)NS(=O)(=O)c1sc(CC(C)C)cc1-c1ccc(Cn2c(CC)nc3c(C)cc(C)nc32)cc1', 99.7),
  ('Cc1cc(C)c(C=C2C(=O)Nc3ccccc32)[nH]1', 100),
  ('COc1ncnc(NS(=O)(=O)c2ccc(N)cc2)c1OC', 104),
  ('CCCCCCCCCCCCCCCCCC(=O)OC(CC(=O)O)C[N+](C)(C)C.[Cl-] (racemic) [DL-Stearoylcarnitine chloride]', 101),
  ('c1cc(-c2cnn3cc(-c4ccc(N5CCNCC5)cc4)cnc23)c2cccnc2c1', 22.7),
  ('CC(=O)NC(Cc1c[nH]c2ccccc12)C(=O)OCc1cc(C(F)(F)F)cc(C(F)(F)F)c1 (stereo unspecified)', 102),
  ('CCCCCC=CCC=CC=CC(O)CC=CCCCC(=O)O (stereo unspecified)', 98.1),
  ('CCC(=C(CC)c1ccc(O)cc1)c1ccc(O)cc1', 99.3),
  ('CC(CN1c2ccccc2Sc2ccccc21)N(C)C.Cl (stereo unspecified) [Promethazine hydrochloride]', 105),
  ('Cc1cn2cc(C(=O)N(C)CCO)cc(N[C@@H]3CCOc4cccc(C)c43)c2n1', 97.8),
  ('O=c1sn(-c2cccc3ccccc23)c(=O)n1Cc1ccccc1', 94.9),
  ('Cn1c2ccccc2c2c3c(c4c5ccccc5n(CCC#N)c4c21)CNC3=O', 94.3),
  ('Cn1c(=O)c(-c2c(Cl)cccc2Cl)cc2cnc(Nc3ccc(N4CCOCC4)cc3)nc21', 52.7);
